I would appreciate it if you labelled entries 1 (yes) when solubility is 1 mM or higher, otherwise 0 (no).

CC(=O)c1cc2c(cc1C)C(C)(C)C(C)CC2(C)C (stereo not drawn) | 0 (no)

Request: Test whether the compound `O=C([O-])c1ccccc1O.[Na+]` records solubility of 1 mM or higher.
Result: 1 (yes)

Request: Test whether the compound `O=C([O-])c1ccccc1.[Na+]` records solubility of 1 mM or higher.
Result: 1 (yes)

Request: Test whether the compound `CC1(C)[C@H](/C=C(\Cl)C(F)(F)F)[C@@H]1C(=O)O[C@H](C#N)c1cccc(Oc2ccccc2)c1` records solubility of 1 mM or higher.
Result: 0 (no)

* * *

details: 25.0 °C
Task for the reader: assign each of the following compounds its reported log10 OH rate constant (cm³/molecule/s).
Answers are plain numbers.

Solved entries:
ClCBr | -13.1
ClC(Cl)C(Cl)Cl | -12.6
CCCN(CCC)C(=O)SCC | -10.5
CCNC(=O)OCC | -10.8

Provide each entry's log10 OH rate constant (cm³/molecule/s) from the list below.
1. BrCBr
2. CC(C)CCO
3. CC(F)(F)CC(F)(F)F

Result:
-12.9
-10.9
-14.1

* * *

assayMetric: logP
Answers are plain numbers.

C[C@H](CCC(=O)NCC(=O)O)[C@H]1CC[C@H]2[C@@H]3[C@H](O)[C@H](O)[C@@H]4C[C@H](O)CC[C@]4(C)[C@H]3CC[C@]12C | 1.9
NS(=O)(=O)c1cc(C2(O)NC(=O)c3ccccc32)ccc1Cl (stereo unspecified) | 0.85
COc1ccc(C=NNC(=N)N)cc1 | 0.29

Provide each entry's logP from the list below.
1. CN1C(=O)C(O)CC1c1cccnc1 (stereo unspecified)
2. CC1COCc2cc3c(cc21)C(C)(C)C(C)C3(C)C (stereo unspecified)
3. CCN1CCC(CNC(=O)c2cc(S(=O)(=O)CC)ccc2OC)C1 (stereo unspecified)
4. N#CCCCCCCC#N
5. Clc1cccc2c1Oc1c(Cl)c(Cl)c(Cl)c(Cl)c1O2

Result:
-1.45
5.9
1.31
0.59
6.5

Provide each entry's logP from the list below.
1. CCCCCCCCCCCCN1CCCC1=O
2. N#CC(C#N)=Cc1ccc(I)o1
3. C=C(C)C(N)=O
4. CCCCCCC(C)O (stereo unspecified)

Result:
1: 4.2; 2: 2.42; 3: -1.11; 4: 2.9

Provide each entry's logP from the list below.
1. C=CC(=O)NCCCN(C)C
2. COc1cc(OC)ncn1
3. O=C(Nc1ccc(O)cc1)C(Cl)Cl
4. Clc1ccc(Cl)c(-c2cc(Cl)c(Cl)cc2Cl)c1
5. C[C@H](CS)C(=O)N1CCC[C@H]1C(=O)O
6. CCCCC(=O)Oc1ccc(CC(N)C(=O)O)cc1 (stereo unspecified)

Result:
[0, 0.96, 1.6, 5.68, 0.34, 0.07]

Provide each entry's logP from the list below.
1. NC(=O)CC[C@H](N)C(=O)O
2. c1ccc2c(c1)Cc1cc3ccccc3cc1-2
3. O=c1ccn(C2OC(CO)CC2F)c(=O)[nH]1 (stereo unspecified)
4. CC(C)OC(=O)c1cc(=O)[nH]c(=O)[nH]1

Result:
1: -3.64; 2: 5.77; 3: -0.87; 4: 0.81

Provide each entry's logP from the list below.
1. CNC(=O)CCC(=O)c1cccnc1
2. CC(CO)CO

Result:
1. -0.69
2. 0.24

Provide each entry's logP from the list below.
1. ClCC1(CCl)C2CC(Cl)(Cl)C1(C(Cl)Cl)CC2(Cl)Cl (stereo unspecified)
2. Cc1cc(Cl)ccc1OCC(=O)OCCCCCC(C)C
3. CCCCCCCOC(=O)c1ccc(N)cc1
4. CC(=O)OCCN(CCC#N)c1ccc(N=Nc2nc3ccc([N+](=O)[O-])cc3s2)cc1
5. C[Si]1(C)O[Si](C)(C)O[Si](C)(C)O[Si](C)(C)O1

Result:
1. 5.79
2. 6.7
3. 4.5
4. 4.08
5. 6.74

Provide each entry's logP from the list below.
1. N[C@@H](Cc1ccc(O)c(O)c1)C(=O)OCCOc1ccccc1
2. COc1ccc(N=c2snc3sc(S(N)(=O)=O)nn23)cc1
3. N#Cc1cccc(N=C=S)c1
4. O=[N+]([O-])c1cc(N(CCO)CCO)ccc1NCCO
5. CCCCN(C)N=O
6. Nc1ncnc2c1nc(Sc1ccc(Cl)cc1)n2C1OC2COP(=O)(O)OC2C1O (stereo unspecified)
7. C=CCOc1ccccc1OCC(CNC(C)C)OC(=O)C1CC1 (stereo unspecified)
8. N#CCC#N

Result:
1.51
2.93
3.13
1.7
1.08
-0.98
3.01
-0.6

Provide each entry's logP from the list below.
1. CCCCCCN1CC(C(=O)OC)CC1=O (stereo unspecified)
2. CCCCCOC(=O)c1cc(=O)[nH]c(=O)[nH]1
3. O=C(O)c1cc(Oc2ccc(C(F)(F)F)cc2Cl)ccc1[N+](=O)[O-]
4. Cc1cc(C)c(N)cc1C

Result:
1. 2.3
2. 1.62
3. 3.7
4. 2.27
